Reference for the values: patent US20110123544A1

Please go through the items and note down their koff.
- measurement_target: T1, recombinant human IL-12 (rhIL-12) (human, UniProt P29459 23-219; P29460 23-328)
- T1 construct: disulfide-linked p35/p40 heterodimer (p70); also called rec. human IL12; IL-12 p70
- T1 sequence (looked up) 1: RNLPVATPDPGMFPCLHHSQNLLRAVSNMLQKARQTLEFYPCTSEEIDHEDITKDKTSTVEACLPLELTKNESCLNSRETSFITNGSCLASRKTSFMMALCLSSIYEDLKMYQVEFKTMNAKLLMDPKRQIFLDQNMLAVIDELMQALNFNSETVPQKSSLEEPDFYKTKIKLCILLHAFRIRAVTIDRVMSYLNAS
- T1 sequence (looked up) 2: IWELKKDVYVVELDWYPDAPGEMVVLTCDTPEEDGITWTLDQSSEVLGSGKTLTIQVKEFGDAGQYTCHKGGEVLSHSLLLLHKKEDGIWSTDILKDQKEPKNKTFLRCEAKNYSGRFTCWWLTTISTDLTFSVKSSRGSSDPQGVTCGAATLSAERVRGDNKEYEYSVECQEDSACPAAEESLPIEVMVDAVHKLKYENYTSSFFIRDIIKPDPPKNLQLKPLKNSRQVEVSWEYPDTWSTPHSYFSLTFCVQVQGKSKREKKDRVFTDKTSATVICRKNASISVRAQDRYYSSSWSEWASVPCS
- test_method_notes: BIAcore (SPR) off-rate on IL-12 chip
Form field: result (number plus unit)

Exercise: Item D9 (scFv, V domains shown) VH: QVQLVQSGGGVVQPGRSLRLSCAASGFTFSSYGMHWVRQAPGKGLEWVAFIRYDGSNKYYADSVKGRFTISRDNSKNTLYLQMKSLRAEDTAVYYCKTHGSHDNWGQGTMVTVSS VL: SYVLTQPPSVSGTPGQRVTISCSGGRSNIGSNTVKWYQQLPGTAPKLLIYGNDQRPSGVPDRFSGSKSGTSASLAITGVQAEDEADYYCQSYDRGRLPAQTFGTGTKVTVLG has what recorded koff?
Solution: 0.000821 s⁻¹

Exercise: Proceed to 99-F8 (scFv, V domains shown) VH: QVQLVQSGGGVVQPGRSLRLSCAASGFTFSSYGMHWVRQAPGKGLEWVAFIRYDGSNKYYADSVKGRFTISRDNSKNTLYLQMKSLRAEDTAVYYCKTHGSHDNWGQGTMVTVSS VL: SYVLTQPPSVSGTPGQRVTISCSGGRSNIGSNTVKWYQQLPGTAPKLLIYGNDQRPSGVPDRFSGSKSGTSASLAITGVQAEDEADYYCQSYIRAPQQVFGTGTKVTVLG
Solution: 0.0037 s⁻¹

Exercise: Proceed to Y61-L50Y-H31E IgG (antibody, V domains shown) VH: QVQLVQSGGGVVQPGRSLRLSCAASGFTFSEYGMHWVRQAPGKGLEWVAFIRYDGSNKYYADSVKGRFTISRDNSKNTLYLQMKSLRAEDTAVYYCKTHGSHDNWGQGTMVTVSS VL: SYVLTQPPSVSGTPGQRVTISCSGGRSWIGSNTVKWYQQLPGTAPKLLIYYNDQRPSGVPDRFSGSKSGTSASLAITGVQAEDEADYYCQSYDRGTHPALLFGTGTKVTVLG
Solution: 2.99e-05 s⁻¹
